B1: NR2F2 (parent)
chain: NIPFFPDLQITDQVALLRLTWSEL

# Variants of: B1
# Assay Method Text: protein stability index of a GFP-peptide fusion (GPS, HEK-293T) (PSI 1-6); higher = more stable;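 also: lentivirally expressed fusions sorted by FACS into six bins by GFP to DsRed ratio, PSI derived from sequencing read proportions per bin multiplied by bin number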
# Particulars: c terminus: a fixed tail appended
Measured Property: protein stability index

> print(dat)
    mutant.label  observed
 1           L8V      2.09
 2           P6C       1.8
 3          W21I      1.65
 4          T11P      2.02
 5          A15K      1.99
 6          Q13K      2.41
 7          A15P      1.69
 8          T11Y      1.46
 9          L24N      1.97
10          V14G      1.45
11          L19Q      2.07
12          E23K      1.55
13           P3H      1.82
14          R18F      2.89
15          T11D      1.61
16          T20Q      2.08
17          I10Y      3.02
18          L24Q       1.9
19           L8A      2.32
20           I2A      1.05
21          A15V      2.22
22          L19G      2.35
23           P6V      3.65
24          L24G      1.65
25          L16R      1.84
26          L19T      2.23
27          L16F      2.62
28           P6I      3.02
29          V14N      1.89
30          T11V      1.99
31           P6T      2.77
32          E23P      2.24
33          W21C      1.87
34          V14R      1.78
35           F5W      1.68
36          L16W      1.65
37          A15N      2.38
38          Q13W      2.93
39          S22G      3.17
40          R18H      1.39
41           F4D      2.44
42           Q9T      2.26
43          L19W      2.23
44          T20M      1.89
45          I10T      1.72
46          I10F      2.95
